Recorded values, source patent US10183943B2.

- Study system: OXA-11 (Pseudomonas aeruginosa)
- Construct: made in house; host or cells: E. coli
- Sequence (Q06778 21-266): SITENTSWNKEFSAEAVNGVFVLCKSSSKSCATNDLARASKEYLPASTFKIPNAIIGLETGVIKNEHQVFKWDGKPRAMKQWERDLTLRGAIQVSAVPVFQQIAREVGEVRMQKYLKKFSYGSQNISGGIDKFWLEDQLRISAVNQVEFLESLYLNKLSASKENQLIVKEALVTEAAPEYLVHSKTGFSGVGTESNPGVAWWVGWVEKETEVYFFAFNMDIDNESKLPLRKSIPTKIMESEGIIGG
- Method: β-lactamase inhibitory activity, determination of IC50 (nitrocefin hydrolysis)
- Format: biochemical
pIC50: −log10 of the molar value.
Use 6 as the dividing line for pIC50, with the line itself on the 1.0 side and lower values as 0.0.

* NCc1ncc(C2=CCN3CC2N(OS(=O)(=O)O)C3=O)s1 (centres unmarked) [Example 32] | 0.0
* Cn1cc(C2=CCN3CC2N(OS(=O)(=O)[O-])C3=O)c(=O)n(C)c1=O.[Na+] (centres unmarked) [Example 23, sulfate] | 0.0
* O=C1N2CC=C(c3cnoc3)C(C2)N1OS(=O)(=O)[O-].[Na+] (centres unmarked) [Example 5, sulfate] | 0.0
* Cn1cc(C2=CC3CN(C2)C(=O)N3OS(=O)(=O)[O-])ccc1=O.[Na+] (centres unmarked) [Example 28, sulfate] | 1.0

----------
- Study system: CMY-37 (Citrobacter freundii)
- Sequence (A0A9R8 21-381): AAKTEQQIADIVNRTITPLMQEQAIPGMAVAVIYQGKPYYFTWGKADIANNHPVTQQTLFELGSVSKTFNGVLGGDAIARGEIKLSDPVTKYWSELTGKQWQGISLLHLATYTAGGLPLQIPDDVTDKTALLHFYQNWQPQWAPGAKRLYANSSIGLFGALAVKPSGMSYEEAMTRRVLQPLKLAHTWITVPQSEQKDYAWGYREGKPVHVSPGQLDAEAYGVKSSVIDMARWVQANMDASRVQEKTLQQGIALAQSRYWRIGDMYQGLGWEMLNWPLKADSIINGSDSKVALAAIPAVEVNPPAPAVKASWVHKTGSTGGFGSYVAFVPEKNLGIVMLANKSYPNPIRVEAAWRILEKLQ
- Method: β-lactamase inhibitory activity, determination of IC50 (nitrocefin hydrolysis)
- Stated conditions: class (C); nitrocefin 200 μM, 30 min pre-incubation
Parameter measured: IC50 (nM)

* COC(=O)c1ncsc1C1=CCN2CC1N(OS(=O)(=O)[O-])C2=O.[Na+] (stereo not shown) | 84

----------
- Study system: AmpC (P99) (Enterobacter cloacae, UniProt P05364)
- Sequence (P05364 21-381): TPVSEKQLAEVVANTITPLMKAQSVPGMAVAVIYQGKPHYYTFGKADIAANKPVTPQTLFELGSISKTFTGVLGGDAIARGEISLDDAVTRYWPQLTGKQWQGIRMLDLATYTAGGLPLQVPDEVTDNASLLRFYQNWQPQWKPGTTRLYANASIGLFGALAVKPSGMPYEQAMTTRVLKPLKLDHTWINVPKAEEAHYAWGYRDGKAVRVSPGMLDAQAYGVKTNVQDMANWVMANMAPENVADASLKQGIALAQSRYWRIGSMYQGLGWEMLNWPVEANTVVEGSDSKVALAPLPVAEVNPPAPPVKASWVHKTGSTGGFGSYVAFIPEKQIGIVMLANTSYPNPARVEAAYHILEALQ
- Method: β-lactamase inhibitory activity, determination of IC50 (nitrocefin hydrolysis)
pIC50: −log10 of the molar value.
// reported pIC50 per item
Parameter measured: pIC50

- O=C1N2CC=C(c3ccncc3)C(C2)N1OS(=O)(=O)[O-].[Na+] (centres unmarked) [Example 7]: 5.77
- O=C1N2CC=C(c3cnoc3)C(C2)N1OS(=O)(=O)[O-].[Na+] (centres unmarked) [Example 5, sulfate]: 6.17
- O=C1N2CC(c3ncco3)=C[C@H](C2)N1OC(F)(F)C(=O)O (racemic) [Example 37]: 6.20
- Cn1cc(C2=CCN3CC2N(OS(=O)(=O)[O-])C3=O)ncc1=O.[Na+] (centres unmarked) [Example 14, sulfate]: 6.05
- Cn1nc(C2=CCN3CC2N(OS(=O)(=O)[O-])C3=O)ccc1=O.[Na+] (centres unmarked) [Example 17, sulfate]: 5.64
- O=C1N2CC(c3ncco3)=C[C@H](C2)N1OS(=O)(=O)[O-].[Na+] [Example 44, sulfate]: 8.00
- Cn1cc(C2=CCN3CC2N(OS(=O)(=O)[O-])C3=O)cnc1=O.[Na+] (centres unmarked) [Example 15, sulfate]: 5.70
- O=C1N2CC=C(c3ccccn3)C(C2)N1OS(=O)(=O)[O-].[Na+] (centres unmarked) [Example 11]: 5.05

----------
- Study system: CTX-M-15 (Escherichia coli)
- Construct: made in house; host or cells: E. coli
- Sequence (Q9EXV5 entry or part of it): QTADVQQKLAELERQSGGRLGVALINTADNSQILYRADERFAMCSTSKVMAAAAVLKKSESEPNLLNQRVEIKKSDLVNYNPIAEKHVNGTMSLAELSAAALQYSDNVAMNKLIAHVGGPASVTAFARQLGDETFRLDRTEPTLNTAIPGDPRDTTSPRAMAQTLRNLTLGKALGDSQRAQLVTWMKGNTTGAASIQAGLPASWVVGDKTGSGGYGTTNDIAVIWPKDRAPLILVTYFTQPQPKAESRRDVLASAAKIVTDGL
- Method: β-lactamase inhibitory activity, determination of IC50 (nitrocefin hydrolysis)
- Assay type: biochemical
- Stated conditions: class (A); nitrocefin 200 μM, 30 min pre-incubation; read-out: IC50 β-lactamase CTX-M-15
pIC50: −log10 of the molar value.
Parameter measured: pIC50

• Cn1ncc(C2=CCN3CC2N(OS(=O)(=O)[O-])C3=O)cc1=O.[Na+] (stereo not shown) [Example 19, sulfate] = 8.27
• Cn1ccc(C2=CCN3CC2N(OS(=O)(=O)[O-])C3=O)cc1=O.[Na+] (stereo not shown) [Example 13, sulfate] = 8.22
• O=C1N2CC=C(c3cnoc3)C(C2)N1OS(=O)(=O)[O-].[Na+] (stereo not shown) [Example 5, sulfate] = 8.16
• Cn1cccc(C2=CCN3CC2N(OS(=O)(=O)[O-])C3=O)c1=O.[Na+] (stereo not shown) [Example 16, sulfate] = 7.00
• Cn1nccc1C1=CCN2CC1N(OS(=O)(=O)[O-])C2=O.[Na+] (stereo not shown) [Example 2, sulfate] = 7.48
• O=C1N2CC(c3ccccn3)=CC(C2)N1OS(=O)(=O)[O-].[Na+] (stereo not shown) = 9.05
• Cn1c(C2=CCN3CC2N(OS(=O)(=O)[O-])C3=O)cccc1=O.[Na+] (stereo not shown) [Example 18, sulfate] = 7.77
• O=C1N2CC=C(c3cncnc3)C(C2)N1OS(=O)(=O)[O-].[Na+] (stereo not shown) [Example 10, sulfate] = 8.08
• COc1ncc(C2=CC3CN(C2)C(=O)N3OS(=O)(=O)[O-])s1.[Na+] (stereo not shown) [Example 39, sulfate] = 9.21
• COC(=O)c1ncsc1C1=CCN2CC1N(OS(=O)(=O)[O-])C2=O.[Na+] (stereo not shown) = 8.19
• O=C1N2CC(c3cccnc3)=CC(C2)N1OS(=O)(=O)[O-].[Na+] (stereo not shown) = 8.59
• O=C1N2CC(c3nc4ccccc4s3)=CC(C2)N1OS(=O)(=O)[O-].[Na+] (stereo not shown) [Example 27, sulfate] = 8.85
• NCc1ncc(C2=CCN3CC2N(OS(=O)(=O)O)C3=O)s1 (stereo not shown) = 7.85
• O=C1N2CC(c3nc4cccnc4s3)=CC(C2)N1OS(=O)(=O)[O-].[Na+] (stereo not shown) [Example 40, sulfate] = 8.92
• O=C1N2CC=C(c3cccnc3)C(C2)N1OS(=O)(=O)[O-].[Na+] (stereo not shown) = 8.32
• O=C1N2CC=C(c3ccccn3)C(C2)N1OS(=O)(=O)[O-].[Na+] (stereo not shown) = 7.54

----------
Consider the following compounds and their measured log10 IC50 readings.
- Study system: OXA-15 (Pseudomonas aeruginosa, UniProt Q51574)
- Construct: made in house; host or cells: E. coli
- Sequence (Q51574 22-275): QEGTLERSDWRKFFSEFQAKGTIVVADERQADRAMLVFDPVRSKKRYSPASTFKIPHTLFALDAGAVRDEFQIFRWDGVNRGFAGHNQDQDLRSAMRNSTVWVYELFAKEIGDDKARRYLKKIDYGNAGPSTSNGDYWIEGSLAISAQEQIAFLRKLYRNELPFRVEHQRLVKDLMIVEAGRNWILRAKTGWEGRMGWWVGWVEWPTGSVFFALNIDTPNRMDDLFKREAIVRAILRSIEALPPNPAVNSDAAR
- Method: biochemical
Parameter measured: log10 IC50 (log10 of the value in µM)

- Cn1cc(C2=CC3CN(C2)C(=O)N3OS(=O)(=O)[O-])ccc1=O.[Na+] (stereo not drawn) [Example 28, sulfate]: -1.74
- O=C1N2CC(c3ncco3)=C[C@H](C2)N1OS(=O)(=O)[O-].[Na+] [Example 44, sulfate]: -1.17
- O=C1N2CC=C(c3cn[nH]c3)C(C2)N1OS(=O)(=O)[O-].[Na+] (stereo not drawn) [Example 1, sulfate]: -0.23
- O=C1N2CC=C(c3ccccn3)C(C2)N1OS(=O)(=O)[O-].[Na+] (stereo not drawn): -0.51
- Cn1cc(C2=CCN3CC2N(OS(=O)(=O)[O-])C3=O)ccc1=O.[Na+] (stereo not drawn) [Example 8, sulfate]: -0.85
- Cn1cccc(C2=CCN3CC2N(OS(=O)(=O)[O-])C3=O)c1=O.[Na+] (stereo not drawn) [Example 16, sulfate]: -1.57

----------
- Study system: AmpC P. aeruginosa (Pseudomonas aeruginosa)
- Sequence (P24735 27-397): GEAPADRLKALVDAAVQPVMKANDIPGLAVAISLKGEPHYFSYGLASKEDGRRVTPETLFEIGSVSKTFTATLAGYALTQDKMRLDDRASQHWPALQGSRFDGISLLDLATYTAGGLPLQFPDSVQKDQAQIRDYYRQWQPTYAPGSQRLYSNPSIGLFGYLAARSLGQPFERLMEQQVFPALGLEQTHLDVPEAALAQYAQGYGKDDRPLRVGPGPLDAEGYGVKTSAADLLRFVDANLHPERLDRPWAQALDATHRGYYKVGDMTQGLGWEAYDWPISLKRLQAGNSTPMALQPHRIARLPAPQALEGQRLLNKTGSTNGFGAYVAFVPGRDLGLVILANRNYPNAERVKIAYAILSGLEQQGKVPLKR
- Method: β-lactamase inhibitory activity, determination of IC50 (nitrocefin hydrolysis)
In this section we review reported IC50 values for a set of molecules.
Parameter measured: IC50 (µM)

- O=C1N2CC=C(c3cnoc3)C(C2)N1OC(F)(F)C(=O)[O-].[Li+] (stereo not shown): 4.2
- O=C1N2CC(c3ncco3)=C[C@H](C2)N1OC(F)(F)C(=O)O (racemic): 0.24
- O=C1N2CC=C(c3ccccn3)C(C2)N1OS(=O)(=O)[O-].[Na+] (stereo not shown): 4.6
- Cn1cc(C2=CCN3CC2N(OS(=O)(=O)[O-])C3=O)ccc1=O.[Na+] (stereo not shown) [Example 8, sulfate]: 3.3

----------
- System: E. coli RGN238 (OXA-1)
- Method: MIC of compounds alone, broth microdilution
- Assay type: cell-based
- Stated conditions: Escherichia coli; strain RGN238 (E. coli); read-out: MIC compounds of the invention alone
Known MIC of a selection of compounds
Parameter measured: MIC (µg/mL)

* O=C1N2CC(c3ccncc3)=CC(C2)N1OS(=O)(=O)[O-].[Na+] (stereo not drawn) | 4
* O=C1N2CC(c3ncon3)=CC(C2)N1OS(=O)(=O)[O-].[Na+] (stereo not drawn) | 4
* O=C1N2CC=C(c3cnco3)C(C2)N1OS(=O)(=O)[O-].[Na+] (stereo not drawn) | 16
* O=C1N2CC(c3cnoc3)=CC(C2)N1OS(=O)(=O)[O-].[Na+] (stereo not drawn) | 4
* O=C1N2CC(n3ccnc3)=CC(C2)N1OS(=O)(=O)[O-].[Na+] (stereo not drawn) | 16
* O=C1N2CC(c3ncco3)=CC(C2)N1OS(=O)(=O)[O-].[Na+] (stereo not drawn) | 2
* Cn1ncc(C2=CCN3CC2N(OS(=O)(=O)[O-])C3=O)cc1=O.[Na+] (stereo not drawn) | 32
* O=C1N2CC(c3cnco3)=CC(C2)N1OS(=O)(=O)[O-].[Na+] (stereo not drawn) | 4
* O=C1N2CC(c3ncco3)=C[C@H](C2)N1OS(=O)(=O)[O-].[Na+] | 1
* NCc1cnc(C2=CC3CN(C2)C(=O)N3OS(=O)(=O)O)s1 (stereo not drawn) | 32

----------
- Test system: K. pneumoniae 200047 (TEM-1, SHV-32, CTX-M-15, OXA-1)
- Method: MIC of compounds alone, broth microdilution
- Format: cell-based
- Stated conditions: Klebsiella pneumoniae, read-out: MIC compounds of the invention alone
List of MIC values.
Parameter measured: MIC (µg/mL)

• NCc1cnc(C2=CC3CN(C2)C(=O)N3OS(=O)(=O)O)s1 (centres unmarked) = 8
• O=C1N2CC(c3ncco3)=C[C@H](C2)N1OC(F)(F)C(=O)O (racemic) = 2
